# protocol_description: 14-day toxicity experiment on rats: toxicokinetics
# Assay type: in vivo, SD rats
# experimental_context: SD, rat, plasma, po, 60 mg/kg, 60 mpk oral, Day 14, plasma
Cmax by entry:
Answer with the figure and its unit, nothing else.

• CC#Cc1ccc2c(-c3ccc(Cl)cc3O)nnc(NC[C@H](O)CO)c2c1 = 68600 ng/mL

--- query ---
Field request: Cmax | item: CC(C)(O)CNc1nnc(-c2ccc(Cl)cc2O)c2ccncc12 [Control compound]
22400 ng/mL

====

AUC(0-t) by entry:
# protocol_description: 14-day toxicity experiment on rats: toxicokinetics
# Type: in vivo, SD rats
# experimental_context: SD, rat, plasma, po, 100 mg/kg, 100 mpk oral, Day 14, plasma; read-out: AUC(0-24)
Answer with the figure and its unit, nothing else.

• CC#Cc1ccc2c(-c3ccc(Cl)cc3O)nnc(NC[C@H](O)CO)c2c1 [Compound 062] = 2120 µg·h/mL

--- query ---
Field request: AUC(0-t) | item: CC(C)(O)CNc1nnc(-c2ccc(Cl)cc2O)c2ccncc12 [Control compound]
439 µg·h/mL

====

# protocol_description: 14-day toxicity experiment on rats: toxicokinetics
# Assay type: in vivo, SD rats
# experimental_context: SD, rat, plasma, po, 100 mg/kg, 100 mpk oral, Day 1, plasma; read-out: AUC(0-24)
# Procedure: Test Example 7 14-Day Toxicity Experiment on Rats SD rats were orally gavaged with compound 062 and the control compound once a day for a total of 14 times. The toxic reactions caused by compound 062 and the control compound were observed and their toxicokinetics were studied. Oral gavage. […] The dosing frequency was once a day for 14 consecutive days, and the dosing amount was 10 mL/kg (the dosing amount was calculated based on the most recent weight). […]
AUC(0-t) by entry:
Provide the reading as a plain figure in µg·h/mL.

* CC(C)(O)CNc1nnc(-c2ccc(Cl)cc2O)c2ccncc12 [Control compound] | 405

--- query ---
Field request: AUC(0-t) | item: CC#Cc1ccc2c(-c3ccc(Cl)cc3O)nnc(NC[C@H](O)CO)c2c1
1120

====

# protocol_description: 14-day toxicity experiment on rats: toxicokinetics
# Type: in vivo, SD rats
# experimental_context: SD, rat, plasma, po, 100 mg/kg, 100 mpk oral, Day 1, plasma
quantity_name: Cmax (ng/mL)
Provide the reading as a plain figure in ng/mL.

* CC#Cc1ccc2c(-c3ccc(Cl)cc3O)nnc(NC[C@H](O)CO)c2c1 | 68200

--- query ---
Field request: Cmax | item: CC(C)(O)CNc1nnc(-c2ccc(Cl)cc2O)c2ccncc12 [Control compound]
24000

====

# protocol_description: 14-day toxicity experiment on rats: toxicokinetics
# Format: in vivo, SD rats
# experimental_context: SD, rat, plasma, po, 30 mg/kg, 30 mpk oral, Day 14, plasma; read-out: AUC(0-24)
AUC(0-t) by entry:

• CC#Cc1ccc2c(-c3ccc(Cl)cc3O)nnc(NC[C@H](O)CO)c2c1 [Compound 062] = 384 µg·h/mL

--- query ---
Field request: AUC(0-t) | item: CC(C)(O)CNc1nnc(-c2ccc(Cl)cc2O)c2ccncc12 [Control compound]
202 µg·h/mL

====

# measurement_target: NLRP3 (Homo sapiens)
# Construct: endogenous in cells
# Sequence (Q96P20 whole entry): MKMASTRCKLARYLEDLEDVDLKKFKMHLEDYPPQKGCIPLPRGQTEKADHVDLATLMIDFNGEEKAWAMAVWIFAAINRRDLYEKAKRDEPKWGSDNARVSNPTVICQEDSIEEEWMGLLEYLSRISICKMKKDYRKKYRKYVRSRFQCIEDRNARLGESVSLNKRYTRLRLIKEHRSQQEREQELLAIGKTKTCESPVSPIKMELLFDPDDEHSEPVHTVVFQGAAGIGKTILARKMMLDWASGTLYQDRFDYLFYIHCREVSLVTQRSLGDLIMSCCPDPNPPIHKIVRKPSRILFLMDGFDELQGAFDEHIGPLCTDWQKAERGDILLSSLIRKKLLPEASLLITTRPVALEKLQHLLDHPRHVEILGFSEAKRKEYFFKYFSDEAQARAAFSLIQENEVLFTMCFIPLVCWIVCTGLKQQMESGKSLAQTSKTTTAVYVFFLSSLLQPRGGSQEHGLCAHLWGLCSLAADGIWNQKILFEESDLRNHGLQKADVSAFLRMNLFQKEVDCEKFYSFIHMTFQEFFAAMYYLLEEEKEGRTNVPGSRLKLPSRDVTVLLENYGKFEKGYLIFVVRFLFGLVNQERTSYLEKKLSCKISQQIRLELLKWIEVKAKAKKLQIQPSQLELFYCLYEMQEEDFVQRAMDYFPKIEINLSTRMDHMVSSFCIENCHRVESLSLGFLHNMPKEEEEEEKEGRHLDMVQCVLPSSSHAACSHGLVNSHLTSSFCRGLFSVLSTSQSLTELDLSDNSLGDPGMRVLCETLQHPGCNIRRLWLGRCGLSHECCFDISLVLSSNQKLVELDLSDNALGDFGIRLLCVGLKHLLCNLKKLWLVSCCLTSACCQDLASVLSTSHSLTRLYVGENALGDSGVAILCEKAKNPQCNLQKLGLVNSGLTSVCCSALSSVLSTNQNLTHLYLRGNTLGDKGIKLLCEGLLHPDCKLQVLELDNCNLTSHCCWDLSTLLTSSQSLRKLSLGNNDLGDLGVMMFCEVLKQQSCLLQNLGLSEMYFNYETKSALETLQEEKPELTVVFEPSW
# protocol_description: IC50 of NLRP3 inhibitors in reducing IL-1β secretion by THP-1 cells (PMA, LPS, nigericin; ELISA)
# experimental_context: compound + nigericin 1 h
quantity_name: IC50 (nM)
Provide the reading as a plain figure in nM.

- CC#Cc1ccc2c(-c3ccc(Cl)cc3O)nnc(NCC(C)(C)O)c2c1: 51
- Oc1cc(Cl)ccc1-c1nnc(N[C@@H]2CCCC(=C(F)F)C2)c2cnccc12: 36
- CC#Cc1ccc2c(-c3ccc(C(F)(F)F)cc3O)nnc(N[C@@H]3COCC[C@H]3O)c2c1: 66
- CC(C)(O)CNc1nnc(-c2ccc3sccc3c2O)c2ccc(C#N)cc12: 50
- CC#Cc1ccc2c(-c3c(O)cc(C(F)(F)F)cc3F)nnc(N[C@H]3C[C@@](C)(O)C3)c2c1: 20

--- query ---
Field request: IC50 | item: CC#Cc1ccc2c(-c3ccc(Cl)cc3O)nnc(N[C@@H]3CCC(=O)N(CCO)C3)c2c1
35

Attribution: patent US20260216182A1
